molecular target: Voltage-dependent calcium channel subunit alpha-2/delta-1 (Homo sapiens); assay: [3H]Gabapentin binding in human A710 membrane expressing alpha-2delta subunit of calcium channel
Sequence (P54289 25-956 limits assumed): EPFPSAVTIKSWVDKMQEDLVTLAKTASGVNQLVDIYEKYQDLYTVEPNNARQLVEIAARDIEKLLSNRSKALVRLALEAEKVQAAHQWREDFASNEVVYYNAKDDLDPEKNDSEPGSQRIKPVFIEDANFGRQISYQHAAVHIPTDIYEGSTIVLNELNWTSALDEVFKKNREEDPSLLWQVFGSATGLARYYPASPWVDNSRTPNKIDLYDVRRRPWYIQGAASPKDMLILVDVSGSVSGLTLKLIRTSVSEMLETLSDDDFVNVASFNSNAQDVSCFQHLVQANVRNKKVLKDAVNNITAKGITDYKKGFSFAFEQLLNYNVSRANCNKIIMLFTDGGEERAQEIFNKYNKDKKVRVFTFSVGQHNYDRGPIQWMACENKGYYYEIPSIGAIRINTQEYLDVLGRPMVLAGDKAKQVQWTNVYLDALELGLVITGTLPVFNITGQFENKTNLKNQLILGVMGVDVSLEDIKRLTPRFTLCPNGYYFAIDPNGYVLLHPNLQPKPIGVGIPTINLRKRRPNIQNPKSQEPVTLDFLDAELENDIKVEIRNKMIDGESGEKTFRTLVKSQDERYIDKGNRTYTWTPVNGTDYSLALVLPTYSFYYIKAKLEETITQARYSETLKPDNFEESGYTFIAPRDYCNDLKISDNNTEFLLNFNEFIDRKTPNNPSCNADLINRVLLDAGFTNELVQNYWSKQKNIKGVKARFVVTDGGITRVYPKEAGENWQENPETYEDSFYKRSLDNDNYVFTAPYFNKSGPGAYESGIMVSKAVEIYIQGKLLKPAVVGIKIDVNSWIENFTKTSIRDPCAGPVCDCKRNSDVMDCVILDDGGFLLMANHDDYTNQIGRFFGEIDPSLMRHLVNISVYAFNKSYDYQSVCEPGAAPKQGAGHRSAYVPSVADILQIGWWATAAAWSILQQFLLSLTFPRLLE
Sequence (P54289 957-1103 limits assumed): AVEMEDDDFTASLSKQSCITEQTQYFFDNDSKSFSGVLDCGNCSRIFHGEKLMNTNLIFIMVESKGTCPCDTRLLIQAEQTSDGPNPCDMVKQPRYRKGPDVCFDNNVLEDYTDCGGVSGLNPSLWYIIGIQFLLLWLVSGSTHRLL
For each record, check the reported IC50: if it is below 0.09 µM write MET, else write NOT MET.

1) CCOc1ccc(-n2c(C)c3c(C)nnc(Nc4ccc5c(c4)CCC5)c3c2C)cc1: NOT MET
2) CCOc1ccc(-n2c(C)c3c(C)nnc(NC4CCCc5ccccc54)c3c2C)cc1 (configuration not stated): NOT MET
3) CCOc1ccc(-n2c(C)c3c(C)nnc(NCc4ccc(F)cc4)c3c2C)cc1: NOT MET
4) CCCCNc1nnc(C)c2c(C)n(-c3ccc(OCC)cc3)c(C)c12: MET
5) CCOc1ccc(-n2c(C)c3c(C)nnc(Nc4ccc5[nH]ccc5c4)c3c2C)cc1: MET
6) CCOc1ccc(-n2c(C)c3c(C)nnc(Nc4ccc5[nH]ncc5c4)c3c2C)cc1: MET
7) CCOc1ccc(-n2c(C)c3c(C)nnc(NCC(C)CC)c3c2C)cc1 (configuration not stated): MET
8) CCOc1ccc(-n2c(C)c3c(C)nnc(Nc4ccc5[nH]nnc5c4)c3c2C)cc1: NOT MET
9) CCOc1ccc(-n2c(C)c3c(C)nnc(NCc4cnn(C)c4)c3c2C)cc1: MET
10) CCOc1ccc(-n2c(C)c3c(C)nnc(Nc4ccc5c(c4)OCO5)c3c2C)cc1: NOT MET
11) CCOc1ccc(-n2c(C)c3c(C)nnc(NCc4ccccn4)c3c2C)cc1: NOT MET
12) CCOc1ccc(-n2c(C)c3c(C)nnc(N4CCC(c5ccccc5)(c5ccccc5)C4)c3c2C)cc1: NOT MET
13) CCOc1ccc(-n2c(C)c3c(C)nnc(N4CCC5=C(C4)NC4C=CC=CC54)c3c2C)cc1 (configuration not stated): NOT MET
14) CCOc1ccc(-n2c(C)c3c(C)nnc(N4CCC(NC(C)=O)C4)c3c2C)cc1 (configuration not stated): NOT MET
15) CCOc1ccc(-n2c(C)c3c(C)nnc(NCc4cccnc4)c3c2C)cc1: NOT MET
16) CCOc1ccc(-n2c(C)c3c(C)nnc(N4CC(C)OC(C)C4)c3c2C)cc1 (configuration not stated): NOT MET
17) CCOc1ccc(-n2c(C)c3c(C)nnc(N4CC(C)CC(C)C4)c3c2C)cc1 (configuration not stated): NOT MET

* * *

biological target: Voltage-dependent calcium channel subunit alpha-2/delta-1 (Homo sapiens); test: [3H]Gabapentin binding in human A710 membrane expressing alpha-2delta subunit of calcium channel
pIC50: −log10 of the molar value.
Hi, to clarify the labels: true covers pIC50 from 7 upward, false covers anything below 7.

1) CCOc1ccc(-n2c(C)c3c(C)nnc(NCc4ccc5c(n4)NCCC5)c3c2C)cc1: true
2) CCOc1ccc(-n2c(C)c3c(C)nnc(NCC4CCCO4)c3c2C)cc1 (stereo unspecified): true
3) CCOc1ccc(-n2c(C)c3c(C)nnc(N4CCN(C)CC4)c3c2C)cc1: false
4) CCOc1ccc(-n2c(C)c3c(C)nnc(N4CCOCC4)c3c2C)cc1: false
5) CCOc1ccc(-n2c(C)c3c(C)nnc(NC4CCc5ccccc54)c3c2C)cc1 (stereo unspecified): true
6) CCOc1ccc(-n2c(C)c3c(C)nnc(N4CCC(C)CC4)c3c2C)cc1: false
7) CCOc1ccc(-n2c(C)c3c(C)nnc(NCc4cccc(F)c4)c3c2C)cc1: true
8) CCOc1ccc(-n2c(C)c3c(C)nnc(NC(C)CC(C)C)c3c2C)cc1 (stereo unspecified): false
9) CCOc1ccc(-n2c(C)c3c(C)nnc(NCc4cccc(Cl)c4)c3c2C)cc1: true
10) CCOc1ccc(-n2c(C)c3c(C)nnc(NCc4ccc(OC)cc4)c3c2C)cc1: false
11) CCOc1ccc(-n2c(C)c3c(C)nnc(N4CCCC4)c3c2C)cc1: false
12) CCOc1ccc(-n2c(C)c3c(C)nnc(NCc4cccc(OC)c4)c3c2C)cc1: false

* * *

// pIC50 lookup, one value per entry
biological target: Voltage-dependent calcium channel subunit alpha-2/delta-1 (Homo sapiens); experiment: [3H]Gabapentin binding in human A710 membrane expressing alpha-2delta subunit of calcium channel
pIC50: −log10 of the molar value.
quantity-measured: pIC50

1. CCOc1ccc(-n2c(C)c3c(C)nnc(NCc4cccc5[nH]ccc45)c3c2C)cc1: 7.15
2. CCOc1ccc(-n2c(C)c3c(C)nnc(N4C[C@@H]5CCc6ccccc6[C@@H]5C4)c3c2C)cc1: 7.08
3. CCOc1ccc(-n2c(C)c3c(C)nnc(NC(C)C)c3c2C)cc1: 7.17
4. CCOc1ccc(-n2c(C)c3c(C)nnc(NCc4ccc(Cl)cc4)c3c2C)cc1: 7.19
5. CCOc1ccc(-n2c(C)c3c(C)nnc(NCc4n[nH]cc4C4CC4)c3c2C)cc1: 7.17
6. CCOc1ccc(-n2c(C)c3c(C)nnc(NCc4cnn(CC)c4)c3c2C)cc1: 7.19
7. CCOc1ccc(-n2c(C)c3c(C)nnc(NCc4ccncc4)c3c2C)cc1: 7.08
8. CCOc1ccc(-n2c(C)c3c(C)nnc(NCc4cccc5cccnc45)c3c2C)cc1: 7.20
9. CCOc1ccc(-n2c(C)c3c(C)nnc(NCc4ccccc4OC)c3c2C)cc1: 7.12
